These entries and their values trace back to ChEMBL document CHEMBL2346646.

Biological target: Glutamate [NMDA] receptor
Design: species or system Homo sapiens
PARAMETER: pIC50

INSERT INTO results (compound_structure_string, parameter, numeric_result) VALUES
  ('Cl.N=C(N)N/N=C/c1ccc(F)cc1F', 'pIC50', 4.26),
  ('Cl.N=C(N)N/N=C/C=C/c1ccccc1', 'pIC50', 4.23),
  ('Cl.N=C(N)N/N=C/c1ccc([N+](=O)[O-])cc1', 'pIC50', 4.11),
  ('Cl.N=C(N)N/N=C/c1ccsc1', 'pIC50', 3.74),
  ('Cl.N=C(N)N/N=C/c1cccnc1', 'pIC50', 3.17),
  ('Cl.N=C(N)N/N=C/c1ccc2c(c1)OCO2', 'pIC50', 4.41),
  ('COc1ccc(/C=N/NC(=N)N)cc1.Cl', 'pIC50', 4.42),
  ('CN(C)c1ccc(/C=N/NC(=N)N)cc1.Cl', 'pIC50', 5.1),
  ('Cc1ccc2cc(/C=N/NC(=N)N)[nH]c2c1.Cl', 'pIC50', 4.48),
  ('COc1ccc(/C=N/NC(=N)N)cc1[N+](=O)[O-].Cl', 'pIC50', 5.11),
  ('Cl.N=C(N)N/N=C/c1ccc(Cl)cc1Cl', 'pIC50', 4.99),
  ('Cl.N=C(N)N/N=C/c1ccc(N)cc1', 'pIC50', 3.96),
  ('Cl.N=C(N)N/N=C/c1ccc2ccccc2c1', 'pIC50', 5.06),
  ('Cc1ccc2ccccc2c1/C=N/NC(=N)N.Cl', 'pIC50', 4.58),
  ('Cl.N#Cc1cccc(/C=N/NC(=N)N)c1', 'pIC50', 4.36),
  ('Cl.N=C(N)N/N=C/c1ccc(F)cc1', 'pIC50', 4.04),
  ('COC(=O)c1ccc(/C=N/NC(=N)N)cc1.Cl', 'pIC50', 4.15);

* * *

Target: Glutamate [NMDA] receptor
Parameters: species or system Homo sapiens
PARAMETER: pIC50

INSERT INTO assay_data (compound_structure_string, numeric_result) VALUES
  ('COC(=O)c1cccc(/C=N/NC(=N)N)c1.Cl', 4.14),
  ('Cl.Cn1c(/C=N/NC(=N)N)cc2ccccc21', 4.31),
  ('Cl.N=C(N)N/N=C/c1cccc(Cl)c1', 4.74),
  ('Cl.N=C(N)N/N=C/c1ccccc1C(F)(F)F', 4.6),
  ('Cl.N=C(N)N/N=C/c1ccccc1F', 4.13),
  ('Cl.N=C(N)N/N=C/c1cccc(N)c1', 3.65),
  ('Cl.N=C(N)N/N=C/c1ccccc1-c1ccccc1', 5.07),
  ('COc1ccccc1/C=N/NC(=N)N.Cl', 4.77),
  ('Cl.N=C(N)N/N=C/c1ccncc1', 3.27),
  ('Cl.N=C(N)N/N=C/c1ccc(Cl)cc1', 5.44),
  ('Cl.N#Cc1ccc(/C=N/NC(=N)N)cc1', 3.64),
  ('Cl.N=C(N)N/N=C/c1ccc(O)cc1O', 3.67),
  ('Cl.N=C(N)N/N=C/c1ccccc1', 4.14),
  ('Cc1ccc(/C=N/NC(=N)N)cc1.Cl', 4.09),
  ('CC(C)c1ccc(/C=N/NC(=N)N)cc1.Cl', 5.22),
  ('CCCCc1ccc(/C=N/NC(=N)N)cc1.Cl', 4.37),
  ('Cc1ccc(/C=N/NC(=N)N)c2ccccc12.Cl', 4.94),
  ('Cl.N=C(N)N/N=C/c1cccc([N+](=O)[O-])c1', 3.81),
  ('Cl.Cl.N=C(N)N/N=C/c1ccc(/C=N/NC(=N)N)cc1', 4.49),
  ('Cl.N=C(N)N/N=C/c1ccc2[nH]ccc2c1', 4.3),
  ('CC(C)(C)c1ccc(/C=N/NC(=N)N)cc1.Cl', 4.64),
  ('Cl.N=C(N)N/N=C/c1ccccc1Cl', 5.15),
  ('Cl.N=C(N)N/N=C/c1ccc(-c2ccc([N+](=O)[O-])cc2)o1', 3.96),
  ('COc1ccc(/C=N/NC(=N)N)c(OC)c1.Cl', 4.54),
  ('COc1ccc(/C=N/NC(=N)N)cc1O.Cl', 4.2),
  ('Cl.N=C(N)N/N=C/c1ccc[nH]1', 4.02),
  ('Cl.N=C(N)N/N=C/c1cc2ccccc2[nH]1', 4.24),
  ('Cl.N=C(N)N/N=C/c1cccc2ccccc12', 4.57);
